Reported IC50, Prolyl hydroxylase EGLN3 (Homo sapiens, UniProt Q9H6Z9).
Write it as a number; the unit nM goes unstated.

Sample answers from the record:
{"Smiles str": "CC(=O)N[C@@H](Cc1ccccc1)C(=O)N[C@H](Cc1ccccc1)C(=O)NCc1ccc2c(c1)c(O)c(C(=O)NCC(=O)O)c(=O)n2C", "Target under test": "Prolyl hydroxylase EGLN3 (Homo sapiens, UniProt Q9H6Z9)", "Meas value": 8.9}
{"Smiles str": "Cn1c(=O)c(C(=O)NCC(=O)O)c(O)c2cc(CNC(=O)[C@H](Cc3ccccc3)NC(=O)[C@H](Cc3ccccc3)NC(=O)CCN3CCOCC3)ccc21", "Target under test": "Prolyl hydroxylase EGLN3 (Homo sapiens, UniProt Q9H6Z9)", "Meas value": 165}

# input for lookup
[in] Entry CC(C)C[C@H](NC(=O)[C@H](Cc1cccc2ccccc12)NC(=O)C(C)(C)C)C(=O)NCc1ccc2c(c1)c(O)c(C(=O)NCC(=O)O)c(=O)n2C , system Prolyl hydroxylase EGLN3 (Homo sapiens, UniProt Q9H6Z9): what IC50 was measured?
[out] 77
